Reported values of Secondary screen nsp5-CA RLU (%) for individual entries
# System: SARS-CoV-2 nsp4-5-6 C145A
# Format: cell-based
Number in %, nothing else.

The value of Secondary screen nsp5-CA RLU (%) measured for the molecule `CNCc1ccc(C)c(NC(=O)c2ccc(Nc3nc(-c4ccccc4)c4ccccc4n3)cc2)c1` turned out to be 256.0

Reported Secondary screen nsp5-CA RLU (%) of `COCCOc1ccc2c(c1)ncn2-c1ccc2cccc(N3CCC(N)CC3)c2n1` : 144.6

Now for a further molecule.
Looking up `C=CC(=O)Nc1cccc(Nc2nc(Nc3ccc(N4CCN(C(C)=O)CC4)cc3OC)ncc2C(F)(F)F)c1` , I see its Secondary screen nsp5-CA RLU (%) listed as 181.9

----------
# Tested on: SARS-CoV-2 nsp4-5-6 C145A
# Assay type: cell-based
Each entry below lists one item and its recorded Secondary screen nsp5-CA RLU (%) value.
# output: bare number, implied unit %

Illustrative cases are given below, each with its answer.
// COc1cc(NC(=O)Nc2cccc(CNC(=O)O[C@H]3CCOC3)c2)ccc1-c1cnco1 [compound 5, Merimepodib] : Secondary screen nsp5-CA RLU (%) value = 110.4

According to the records, this molecule O=C(NC(Cc1cc(=O)[nH]c2ccccc12)C(=O)O)c1ccc(Cl)cc1 (stereo not shown) [compound 43, Rebamipide] displays Secondary screen nsp5-CA RLU (%) of 71.6

Let us examine a further case.
For reference, reported Secondary screen nsp5-CA RLU (%) for CC(C)(C)c1cnc(CSc2cnc(NC(=O)C3CCNCC3)s2)o1 [compound 17, SNS-032 (BMS-387032)] stands at 66.6

----------
# System: SARS-CoV-2 nsp4-5-6 C145A
# Type: cell-based
Secondary screen nsp5-CA RLU (%) values, listed per item
Answer in %, number only, no unit symbol.

Lab note: measured Secondary screen nsp5-CA RLU (%) of `Cc1nc(Nc2ncc(C(=O)Nc3c(C)cccc3Cl)s2)cc(N2CCN(CCO)CC2)n1` was 249.1

Record `O=C(Nc1c[nH]nc1-c1nc2ccc(CN3CCOCC3)cc2[nH]1)NC1CC1` , field Secondary screen nsp5-CA RLU (%): 71.3

Continuing:
Data point: `CC(C)(C(=O)c1cccnc1)c1cccnc1` ; Secondary screen nsp5-CA RLU (%) = 77.7

----------
# Lookup of reported Secondary screen nsp5-CA RLU (%) keyed by entry
# Test system: SARS-CoV-2 nsp4-5-6 C145A
# Format: cell-based
Number only, in %; omit the unit.

Study these solved cases before continuing.
Secondary screen nsp5-CA RLU (%) recorded for this compound, C1=C/COCc2cc(ccc2OCCN2CCCC2)Nc2nccc(n2)-c2cccc(c2)COC/1 [Compound #9, Pacritinib (SB1518)] , is 98.3

The compound listed as `C=CC(=O)Nc1cc(Nc2nccc(-c3cn(C)c4ccccc34)n2)c(OC)cc1N(C)CCN(C)C` shows Secondary screen nsp5-CA RLU (%) equal to 43.2

# input for lookup
Data point: `CCOC(=O)C1=C(C)NC(C)=C(C(=O)OCC)C1c1ccccc1/C=C/C(=O)OC(C)(C)C` ; Secondary screen nsp5-CA RLU (%) = 121.2
